Assign IC50 to each entry below.
Molecular target: CIB1 and αIIb interaction (CIB1-GST : F-αIIb peptide) (Homo sapiens)
Construct: made in house; host or cells: BL-21 plus RIL cells (E. coli)
Sequence (Q99828 whole entry): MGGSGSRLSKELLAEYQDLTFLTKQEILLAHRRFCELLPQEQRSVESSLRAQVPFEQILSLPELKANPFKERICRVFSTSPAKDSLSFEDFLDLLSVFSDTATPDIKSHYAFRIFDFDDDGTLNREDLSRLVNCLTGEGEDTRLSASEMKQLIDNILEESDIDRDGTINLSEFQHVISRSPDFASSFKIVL
Test: FP assay, 1536-well qHTS format (primary and confirmatory screen)
Assay type: binding
Details: qHTS primary screen hits, Table S2; read-out: IC50
Express your answer in µM, writing the number without its unit.

Request: Please tell me: IC50 of Cc1ccc2c(c1)/C(=C\C(=O)c1cccs1)C(=O)N2.O=C(O)C(F)(F)F , system CIB1 and αIIb interaction (CIB1-GST : F-αIIb peptide) (Homo sapiens)?
Result: 15.8

Request: Please tell me: IC50 of CN1CCN(c2ccc(Nc3nn4c(=O)c5ccccc5nc4s3)cc2)CC1.O=C(O)C(F)(F)F , system CIB1 and αIIb interaction (CIB1-GST : F-αIIb peptide) (Homo sapiens)?
Result: 12.6

Request: Please tell me: IC50 of Oc1ccc(Cl)cc1Sc1cc(Cl)ccc1O , system CIB1 and αIIb interaction (CIB1-GST : F-αIIb peptide) (Homo sapiens)?
Result: 50.1

Request: Please tell me: IC50 of Cc1ccnc(NC(=S)N2CCN(c3cccc(C(F)(F)F)c3)CC2)n1.O=C(O)C(F)(F)F , system CIB1 and αIIb interaction (CIB1-GST : F-αIIb peptide) (Homo sapiens)?
Result: 79.4

Request: Please tell me: IC50 of Cc1ccc(OCCn2c3c(c4ccccc42)CN(C(=O)C2CCCCC2)CC3)cc1.O=C(O)C(F)(F)F , system CIB1 and αIIb interaction (CIB1-GST : F-αIIb peptide) (Homo sapiens)?
Result: 56.2

Request: Please tell me: IC50 of O=C([O-])CCNc1cc(N2CCc3ccccc3CC2)nc(-c2ccccn2)n1.[Na+] , system CIB1 and αIIb interaction (CIB1-GST : F-αIIb peptide) (Homo sapiens)?
Result: 26.3

Request: Please tell me: IC50 of Cc1c(OCC(F)(F)F)ccnc1C[S+]([O-])c1nc2ccccc2[nH]1 (centres unmarked) , system CIB1 and αIIb interaction (CIB1-GST : F-αIIb peptide) (Homo sapiens)?
Result: 50.1

Request: Please tell me: IC50 of C[n+]1cc2c3c(ccc2c2ccc4cc5c(cc4c21)OCO5)OCO3.[Cl-] , system CIB1 and αIIb interaction (CIB1-GST : F-αIIb peptide) (Homo sapiens)?
Result: 14.1

Request: Please tell me: IC50 of O=C1C=CC(=O)N1c1cccc(Br)c1 , system CIB1 and αIIb interaction (CIB1-GST : F-αIIb peptide) (Homo sapiens)?
Result: 7.1

Request: Please tell me: IC50 of CCCCn1nc(-c2ccccc2)c2nc3ccccc3nc21.O=C(O)C(F)(F)F , system CIB1 and αIIb interaction (CIB1-GST : F-αIIb peptide) (Homo sapiens)?
Result: 25.1

Request: Please tell me: IC50 of O=C(NC(c1ccco1)c1cc(Cl)c2cccnc2c1O)c1cccs1.O=C(O)C(F)(F)F (centres unmarked) , system CIB1 and αIIb interaction (CIB1-GST : F-αIIb peptide) (Homo sapiens)?
Result: 25.1

Request: Please tell me: IC50 of CN1CCN(c2nc3cc(C(F)(F)F)ccc3n3cccc23)CC1.O=C(O)/C=C\C(=O)O , system CIB1 and αIIb interaction (CIB1-GST : F-αIIb peptide) (Homo sapiens)?
Result: 44.7

Request: Please tell me: IC50 of O=C(O)C(F)(F)F.O=S(=O)(Nc1ccc(O)c2ncccc12)c1ccccc1F , system CIB1 and αIIb interaction (CIB1-GST : F-αIIb peptide) (Homo sapiens)?
Result: 79.4

Request: Please tell me: IC50 of O=C(Nc1nc(-c2ccccc2)cs1)c1ccncc1NS(=O)(=O)c1ccccc1.O=C(O)C(F)(F)F , system CIB1 and αIIb interaction (CIB1-GST : F-αIIb peptide) (Homo sapiens)?
Result: 44.7

Request: Please tell me: IC50 of Cn1ccc(=Nc2ccc(NC(=O)c3ccc(/N=c4/ccn(C)c5ccc([N+](=O)[O-])cc45)cc3)cc2)cc1.O=C(O)C(F)(F)F , system CIB1 and αIIb interaction (CIB1-GST : F-αIIb peptide) (Homo sapiens)?
Result: 56.2

Request: Please tell me: IC50 of COc1ccc(C2CC(=O)Nc3nc(N4CCOCC4)sc32)c(OC)c1.O=C(O)C(F)(F)F (centres unmarked) , system CIB1 and αIIb interaction (CIB1-GST : F-αIIb peptide) (Homo sapiens)?
Result: 56.2

Request: Please tell me: IC50 of O=C1c2ccccc2-c2n[nH]c3cccc1c23 , system CIB1 and αIIb interaction (CIB1-GST : F-αIIb peptide) (Homo sapiens)?
Result: 14.1

Request: Please tell me: IC50 of COc1ccc(CNC(=O)c2ccc3c(c2)NC(=O)c2ccccc2S3)cc1 , system CIB1 and αIIb interaction (CIB1-GST : F-αIIb peptide) (Homo sapiens)?
Result: 56.2

Request: Please tell me: IC50 of CCCC(=O)OC[C@@H](OC(=O)CCC)[C@@H](OC(=O)CCC)[C@H](Cn1c2nc(=O)[nH]c(=O)c-2nc2cc(C)c(C)cc21)OC(=O)CCC , system CIB1 and αIIb interaction (CIB1-GST : F-αIIb peptide) (Homo sapiens)?
Result: 2.8

Request: Please tell me: IC50 of O=C(O)C(F)(F)F.O=S(=O)(Nc1nccs1)c1ccc(NCc2cc(F)cc(Cl)c2O)cc1 , system CIB1 and αIIb interaction (CIB1-GST : F-αIIb peptide) (Homo sapiens)?
Result: 1.8
